This collection of values is drawn from patent US10023593B2.

- STUDY_SYSTEM: L1196M mutant ALK kinase (Homo sapiens, UniProt Q9UM73, L1196M)
- Sequence (Q9UM73 19-1620 L1196M): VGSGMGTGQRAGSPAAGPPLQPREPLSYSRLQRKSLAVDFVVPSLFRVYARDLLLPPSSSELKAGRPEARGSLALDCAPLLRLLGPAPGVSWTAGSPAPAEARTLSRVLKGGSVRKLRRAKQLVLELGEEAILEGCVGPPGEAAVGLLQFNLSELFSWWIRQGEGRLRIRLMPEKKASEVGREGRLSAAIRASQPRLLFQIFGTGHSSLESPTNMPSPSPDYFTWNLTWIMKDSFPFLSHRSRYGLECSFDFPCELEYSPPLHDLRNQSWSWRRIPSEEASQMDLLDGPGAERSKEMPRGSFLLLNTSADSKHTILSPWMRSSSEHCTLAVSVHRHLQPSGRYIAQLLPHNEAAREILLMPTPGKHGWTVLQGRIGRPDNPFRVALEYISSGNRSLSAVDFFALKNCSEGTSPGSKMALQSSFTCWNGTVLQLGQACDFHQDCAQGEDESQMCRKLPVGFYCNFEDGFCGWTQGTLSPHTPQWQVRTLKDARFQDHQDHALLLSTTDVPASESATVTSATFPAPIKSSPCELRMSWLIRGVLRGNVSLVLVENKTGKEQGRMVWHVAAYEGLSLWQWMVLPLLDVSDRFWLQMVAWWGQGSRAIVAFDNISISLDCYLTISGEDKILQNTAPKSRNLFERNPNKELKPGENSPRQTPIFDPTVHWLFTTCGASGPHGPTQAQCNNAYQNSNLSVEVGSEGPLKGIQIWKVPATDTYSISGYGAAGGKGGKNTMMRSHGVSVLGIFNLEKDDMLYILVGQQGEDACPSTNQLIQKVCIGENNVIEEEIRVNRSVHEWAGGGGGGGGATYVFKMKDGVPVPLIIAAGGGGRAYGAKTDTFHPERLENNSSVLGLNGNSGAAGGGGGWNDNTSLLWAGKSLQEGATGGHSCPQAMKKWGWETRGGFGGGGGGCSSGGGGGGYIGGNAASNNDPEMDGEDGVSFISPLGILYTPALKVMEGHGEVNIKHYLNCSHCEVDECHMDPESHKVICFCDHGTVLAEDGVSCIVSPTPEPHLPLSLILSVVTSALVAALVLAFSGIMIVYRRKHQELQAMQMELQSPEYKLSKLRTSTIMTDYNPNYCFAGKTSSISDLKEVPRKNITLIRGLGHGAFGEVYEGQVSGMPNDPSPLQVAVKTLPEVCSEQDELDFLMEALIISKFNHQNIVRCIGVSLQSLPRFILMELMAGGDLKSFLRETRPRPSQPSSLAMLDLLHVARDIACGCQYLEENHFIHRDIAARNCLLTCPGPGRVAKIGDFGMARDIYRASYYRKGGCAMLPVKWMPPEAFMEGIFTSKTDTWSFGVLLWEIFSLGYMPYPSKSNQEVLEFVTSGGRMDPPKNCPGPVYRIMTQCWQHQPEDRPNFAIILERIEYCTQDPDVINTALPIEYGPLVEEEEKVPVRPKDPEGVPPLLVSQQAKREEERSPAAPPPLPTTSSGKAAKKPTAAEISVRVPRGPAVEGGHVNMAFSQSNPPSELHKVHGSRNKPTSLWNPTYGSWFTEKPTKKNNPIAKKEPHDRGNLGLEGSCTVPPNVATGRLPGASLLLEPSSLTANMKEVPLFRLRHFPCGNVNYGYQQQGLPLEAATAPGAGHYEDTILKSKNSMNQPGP
- TEST_DESCRIPTION: HTRF KinEASE-TK assay, inhibitory activity on L1196M mutant ALK kinase
- MEASUREMENT_CONTEXT: L1196M mutant ALK 1 ng/μl, substrate 1 μM, ATP 5 μM, 30° C. 35 minutes, read-out: Inhibition on ALK kinases (L1196M mutant), IC50
Recorded IC50 by entry
Report as a plain number; the unit nM is understood.

// worked examples, IC50 included
• Cc1cc(Nc2nc(Nc3cc(C)c(C4CCN(C)CC4)cc3OC(C)C)ncc2Cl)n[nH]1 [Final product 212, reference compound] = 37
• Cc1cc(Nc2ncc(Cl)c(Nc3cn(C4CC4)nc3S(=O)(=O)C(C)C)n2)c(OC2CC2)cc1C1CCN(C)CC1 = 11

Proceeding to the next molecule to report its IC50.
L1196M mutant ALK kinase (Homo sapiens, UniProt Q9UM73, L1196M) assay, molecule "Cc1cc(Nc2ncc(Cl)c(Nc3cn(C)nc3S(=O)(=O)C(C)C)n2)c(OC2CC2)cc1C1CCN(C(=O)C(C)(C)C)CC1" , recorded IC50 = 56
